experiment: Bioavailability test in vivo in cynomolgus monkey (pharmacokinetics, IV and PO); conditions: male, cynomolgus monkey, plasma; cynomolgus monkeys, po, 20 mg/kg, fasted
QUANTITY NAME: Tmax (h)
A number alone suffices; assume h.

IN: Need Tmax of C=CCn1c(=O)c2cnc(Nc3ccc(C4CCC(N5CCC5)CC4)cc3)nc2n1-c1cccc(C(C)(C)O)n1 (single isomer, unassigned) , thanks.
OUT: 4.5

IN: Do the same for C=CCn1c(=O)c2cnc(Nc3ccc(N4CCN(C)CC4)cc3)nc2n1-c1cccc(C(C)(C)O)n1 [Control 1, reference compound] please
OUT: 2

###

Exercise: state measured clearance for each of the compounds provided.
experiment: Bioavailability test in vivo in cynomolgus monkey (pharmacokinetics, IV and PO); conditions: male, cynomolgus monkey, plasma; cynomolgus monkeys, iv, 3 mg/kg
Entry rule: numbers only, all in L/h/kg.

IN: Could you tell me which clearance is on file for C=CCn1c(=O)c2cnc(Nc3ccc(C4CCC(N5CCC5)CC4)cc3)nc2n1-c1cccc(C(C)(C)O)n1 (single isomer, unassigned) ?
OUT: 3.12

IN: Then what about the compound C=CCn1c(=O)c2cnc(Nc3ccc(N4CCN(C)CC4)cc3)nc2n1-c1cccc(C(C)(C)O)n1 [Control 1, reference compound] ?
OUT: 0.72

###

Consider the following compounds; for each one, report its AUClast.
assay: Bioavailability test in vivo in mice (pharmacokinetics, iv and intragastric); set-up: species or system ICR mice; details: iv, 3 mg/kg

IN: Can you look up the measured AUClast of C=CCn1c(=O)c2cnc(Nc3ccc(C4CCC(N(C)C)CC4)cc3)nc2n1-c1cccc(C(C)(C)O)n1 (single isomer, unassigned) [Compound I-1-1] for me?
OUT: 372.5 ± 24.38 (h) (ng/mL)

IN: Next record, please: C=CCn1c(=O)c2cnc(Nc3ccc(C4CCC(N5CCC5)CC4)cc3)nc2n1-c1cccc(C(C)(C)O)n1 (centres unmarked) [Compound I-8]
OUT: 317.5 ± 34.41 (h) (ng/mL)

IN: Okay, and C=CCn1c(=O)c2cnc(Nc3ccc(N4CCN(C)CC4)cc3)nc2n1-c1cccc(C(C)(C)O)n1 [Control 1, reference compound] ?
OUT: 273.1 ± 21.34 (h) (ng/mL)

IN: // next record C=CCn1c(=O)c2cnc(Nc3ccc4c(c3)CCC(N(C)C)C4)nc2n1-c1cccc(C(C)(C)O)n1 (centres unmarked) [Control 2, reference compound]
OUT: 261.52 ± 26.93 (h) (ng/mL)

IN: Another: C=CCn1c(=O)c2cnc(Nc3ccc(C4CCC(N5CCC5)CC4)cc3)nc2n1-c1cccc(C(C)(C)O)n1 (single isomer, unassigned) [Compound I-8-1]
OUT: 317.5 ± 34.41 (h) (ng/mL)

###

assay: Bioavailability test in vivo in mice (pharmacokinetics, iv and intragastric); design: species or system ICR mice; conditions: po (intragastric), 10 mg/kg
QUANTITY NAME: AUClast

IN: Please give the measured AUClast for this compound: C=CCn1c(=O)c2cnc(Nc3ccc(C4CCC(N(C)C)CC4)cc3)nc2n1-c1cccc(C(C)(C)O)n1 (single isomer, unassigned) [Compound I-1-1]
OUT: 528.6 ± 331.1 (h) (ng/mL)

IN: // same read-out, input: C=CCn1c(=O)c2cnc(Nc3ccc4c(c3)CCC(N(C)C)C4)nc2n1-c1cccc(C(C)(C)O)n1 (centres unmarked) [Control 2, reference compound]
OUT: 80.15 ± 9.62 (h) (ng/mL)

IN: Follow-up entry: C=CCn1c(=O)c2cnc(Nc3ccc(C4CCC(N5CCC5)CC4)cc3)nc2n1-c1cccc(C(C)(C)O)n1 (single isomer, unassigned) [Compound I-8-1]
OUT: 637.9 ± 302.3 (h) (ng/mL)

IN: Lookup C=CCn1c(=O)c2cnc(Nc3ccc(N4CCN(C)CC4)cc3)nc2n1-c1cccc(C(C)(C)O)n1 [Control 1, reference compound]
OUT: 151.7 ± 62.14 (h) (ng/mL)

IN: Lookup C=CCn1c(=O)c2cnc(Nc3ccc(C4CCC(N5CCC5)CC4)cc3)nc2n1-c1cccc(C(C)(C)O)n1 (centres unmarked) [Compound I-8]
OUT: 637.9 ± 302.3 (h) (ng/mL)

###

test: Bioavailability test in vivo in mice (pharmacokinetics, iv and intragastric); design: species or system ICR mice; conditions: ICR, mouse, plasma, iv, 3 mg/kg
Please provide measured clearance for the entries that follow.
The reply should contain only the number, in mL/min/kg.

IN: Request the reported clearance associated with C=CCn1c(=O)c2cnc(Nc3ccc(C4CCC(N5CCC5)CC4)cc3)nc2n1-c1cccc(C(C)(C)O)n1 (centres unmarked) [Compound I-8]
OUT: 155

IN: // repeat for C=CCn1c(=O)c2cnc(Nc3ccc4c(c3)CCC(N(C)C)C4)nc2n1-c1cccc(C(C)(C)O)n1 (centres unmarked) [Control 2, reference compound] and report
OUT: 188

IN: Another compound to check: C=CCn1c(=O)c2cnc(Nc3ccc(N4CCN(C)CC4)cc3)nc2n1-c1cccc(C(C)(C)O)n1 [Control 1, reference compound]
OUT: 183

IN: Okay, and C=CCn1c(=O)c2cnc(Nc3ccc(C4CCC(N(C)C)CC4)cc3)nc2n1-c1cccc(C(C)(C)O)n1 (single isomer, unassigned) [Compound I-1-1] ?
OUT: 129

IN: Repeat for the following compound: C=CCn1c(=O)c2cnc(Nc3ccc(C4CCC(N5CCC5)CC4)cc3)nc2n1-c1cccc(C(C)(C)O)n1 (single isomer, unassigned) [Compound I-8-1]
OUT: 155

###

test: Bioavailability test in vivo in mice (pharmacokinetics, iv and intragastric); design: species or system ICR mice; details: ICR, mouse, plasma, iv, 3 mg/kg
Consider the following compounds; for each one, report its Cmax.
A number alone suffices; assume ng/mL.

IN: Item C=CCn1c(=O)c2cnc(Nc3ccc(C4CCC(N5CCC5)CC4)cc3)nc2n1-c1cccc(C(C)(C)O)n1 (single isomer, unassigned) [Compound I-8-1] has what recorded Cmax?
OUT: 644

IN: What do you have for C=CCn1c(=O)c2cnc(Nc3ccc(C4CCC(N(C)C)CC4)cc3)nc2n1-c1cccc(C(C)(C)O)n1 (single isomer, unassigned) [Compound I-1-1] ?
OUT: 701

IN: And what about the compound C=CCn1c(=O)c2cnc(Nc3ccc(C4CCC(N5CCC5)CC4)cc3)nc2n1-c1cccc(C(C)(C)O)n1 (centres unmarked) [Compound I-8] ?
OUT: 644

IN: And what about the compound C=CCn1c(=O)c2cnc(Nc3ccc(N4CCN(C)CC4)cc3)nc2n1-c1cccc(C(C)(C)O)n1 [Control 1, reference compound] ?
OUT: 774

IN: Now the compound C=CCn1c(=O)c2cnc(Nc3ccc4c(c3)CCC(N(C)C)C4)nc2n1-c1cccc(C(C)(C)O)n1 (centres unmarked) [Control 2, reference compound]
OUT: 646

###

assay: Bioavailability test in vivo in mice (pharmacokinetics, iv and intragastric); parameters: species or system ICR mice; details: ICR, mouse, plasma, po 10 mg/kg vs iv 3 mg/kg, read-out: F (absolute bioavailability)
QUANTITY NAME: bioavailability (%)
// return numeric value only (unit: %, not printed)

IN: Need bioavailability, item C=CCn1c(=O)c2cnc(Nc3ccc4c(c3)CCC(N(C)C)C4)nc2n1-c1cccc(C(C)(C)O)n1 (centres unmarked) [Control 2, reference compound]
OUT: 9.19

IN: Param item: C=CCn1c(=O)c2cnc(Nc3ccc(C4CCC(N5CCC5)CC4)cc3)nc2n1-c1cccc(C(C)(C)O)n1 (centres unmarked) [Compound I-8]
OUT: 60.3

IN: Another molecule to look at: C=CCn1c(=O)c2cnc(Nc3ccc(C4CCC(N5CCC5)CC4)cc3)nc2n1-c1cccc(C(C)(C)O)n1 (single isomer, unassigned) [Compound I-8-1]
OUT: 60.3

IN: Request: C=CCn1c(=O)c2cnc(Nc3ccc(C4CCC(N(C)C)CC4)cc3)nc2n1-c1cccc(C(C)(C)O)n1 (single isomer, unassigned)
OUT: 42.6

IN: Then this molecule: C=CCn1c(=O)c2cnc(Nc3ccc(N4CCN(C)CC4)cc3)nc2n1-c1cccc(C(C)(C)O)n1 [Control 1, reference compound]
OUT: 16.7

###

Can you tell me Vd for the items I'm about to list?
assay: Bioavailability test in vivo in mice (pharmacokinetics, iv and intragastric); design: species or system ICR mice; settings: ICR, mouse, plasma, iv, 3 mg/kg, iv, 3 mg/kg, read-out: Vss
Just the number in L/kg, nothing appended.

IN: Which Vd is listed for C=CCn1c(=O)c2cnc(Nc3ccc(C4CCC(N5CCC5)CC4)cc3)nc2n1-c1cccc(C(C)(C)O)n1 (single isomer, unassigned) [Compound I-8-1] ?
OUT: 10.3

IN: Repeat for the following compound: C=CCn1c(=O)c2cnc(Nc3ccc(N4CCN(C)CC4)cc3)nc2n1-c1cccc(C(C)(C)O)n1 [Control 1, reference compound]
OUT: 4.58

IN: Subsequent entry: C=CCn1c(=O)c2cnc(Nc3ccc(C4CCC(N5CCC5)CC4)cc3)nc2n1-c1cccc(C(C)(C)O)n1 (centres unmarked) [Compound I-8]
OUT: 10.3

IN: Next record, please: C=CCn1c(=O)c2cnc(Nc3ccc(C4CCC(N(C)C)CC4)cc3)nc2n1-c1cccc(C(C)(C)O)n1 (single isomer, unassigned)
OUT: 13.6

IN: Entry to check: C=CCn1c(=O)c2cnc(Nc3ccc4c(c3)CCC(N(C)C)C4)nc2n1-c1cccc(C(C)(C)O)n1 (centres unmarked) [Control 2, reference compound]
OUT: 9.69
